# tested.target: human adenosine A2b receptor (Homo sapiens (Human), UniProt P29275)
# Sequence (P29275 whole entry): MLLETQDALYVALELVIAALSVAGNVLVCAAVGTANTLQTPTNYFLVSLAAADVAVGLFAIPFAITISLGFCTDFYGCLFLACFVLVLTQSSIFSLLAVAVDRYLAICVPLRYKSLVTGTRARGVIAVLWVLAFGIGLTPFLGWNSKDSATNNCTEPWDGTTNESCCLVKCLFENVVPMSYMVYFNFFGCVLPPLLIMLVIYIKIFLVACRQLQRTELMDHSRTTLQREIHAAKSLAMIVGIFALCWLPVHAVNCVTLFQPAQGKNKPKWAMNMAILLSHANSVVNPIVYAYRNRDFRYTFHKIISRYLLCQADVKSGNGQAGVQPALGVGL
# protocol.summary: Cellular in vitro reporter gene test for A2b receptor activity (CHO-K1, CRE-luciferase, NECA stimulation)
# Format: cell-based
# condition.parameters: recombinant CHO-K1 cell line, CRE-luciferase reporter, antagonism of EC50 concentration of NECA; in some cases means of several determinations, rounded to two significant figures; read-out: A2b receptor IC50
Below, each entry is listed with its recorded IC50.
API: value field is a number in nM; no unit string.

Example cases with answers are listed next.
Cc1c(Cn2cc[nH]c2=O)sc2c1c(=O)n(C(C)C)c(=O)n2CC1CCCO1 (racemic) [Example 247] : 8.9
COCCn1c(=O)n(CC(C)C)c(=O)c2c(C)c(CN3CCNC3=O)sc21 : 8.7
COCCn1c(=O)n(CC(C)OC)c(=O)c2c(C)c(CN3CCNC3=O)sc21 (racemic) [Example 99] : 17

**Q:** Which IC50 reading was recorded for the compound CCn1c(=O)c2c(C)c(CN3CCCNC3=O)sc2n(CCC(F)(F)F)c1=O ?
**A:** 11

**Q:** // lookup IC50 for Cc1c(Cn2[nH]ccc2=O)sc2c1c(=O)n(C(C)C)c(=O)n2CC1CCCO1 (single isomer, unassigned) [Example 136]
**A:** 360

**Q:** Entry Cc1c(CN2CCNC(=O)C2=O)sc2c1c(=O)n(CC(F)(F)F)c(=O)n2CC1CCCO1 (single isomer, unassigned) [Example 488] has what IC50?
**A:** 68

**Q:** Suppose we examine the compound Cc1c(CN2CCNC2=S)sc2c1c(=O)n(CC(C)C)c(=O)n2CC1CCO1 (single isomer, unassigned) [Example 148] ; what IC50 value has been reported?
**A:** 4.1

**Q:** Given the entry COCCn1c(=O)n(CCC=C(F)F)c(=O)c2c(C)c(CN3CCNC3=O)sc21 , report its measured IC50.
**A:** 1.3

**Q:** I'd like to know its IC50. The compound in question is CCn1c(=O)c2c(C)c(CN3CCNC(=O)C3=O)sc2n(CCOC2CC2)c1=O
**A:** 38
